PROTOCOL NOTES: Cytotoxicity against human HL60(TB) cells by SRB assay
Type: functional, HL-60(TB)
SETTINGS: HL-60
Measured GI50, listed per entry for reference.
Only the number, expressed in µM, is required.

The following compounds have reported results that may help.
>>> test_value("CC(=O)OC[C@H]1O[C@@H](O[C@@H]2C[C@H]3C(C)(C)[C@H](OC(C)=O)CC[C@]3(C)[C@H]3CC[C@@H]4[C@]5(CC[C@@]4(C)[C@@]32C)O[C@@H]([C@H](O)C(C)(C)O)C[C@@H]5C)[C@H](O)[C@@H](O)[C@@H]1O")
2.95
>>> test_value("COC(C)(C)[C@@H](O)[C@H](O)C[C@H](C)C1=C2CC[C@@H]3[C@@]4(C)CC[C@@H](OC(C)=O)C(C)(C)[C@@H]4C[C@@H](O[C@@H]4O[C@H](COC(C)=O)[C@@H](O)[C@H](O)[C@H]4O)[C@@]3(C)[C@]2(C)CC1")
3.63

Now, please, on to the next compound.
Dear colleague, I am looking for the recorded GI50 of the following compound: `CC(=O)OC[C@H]1O[C@@H](O[C@@H]2C[C@H]3C(C)(C)[C@H](OC(C)=O)CC[C@]3(C)[C@H]3CC[C@@]45C[C@H](O)C[C@H](C)[C@@H]4CC=C5[C@@]32C)[C@H](O)[C@@H](O)[C@@H]1O`
2.09
